I'd appreciate it if you could supply MFI at 33.3 nM values for the items below.
- subject of test: CD28 (human) (UniProt P10747)
- experiment summary: flow cytometry, Jurkat/IL2 reporter cells (endogenous CD28)
Provide only the numeric value, understood in MFI.

Input: Give the measured MFI at 33.3 nM of variant CD80 IgV-Fc Q33L/E35D/M43V/M47I/A71G (Fc fusion) VIHVTKEVKEVATLSCGHNVSVEELAQTRIYWLKDKKMVLTMVSGDINIWPEYKNRTIFDITNNLSIVILGLRPSDEGTYECVVLKYEKDAFKREHLAEVTLSVKAD .
Output: 284

Input: Also need variant CD80 IgV-Fc E35D/M47I/E77A/L85Q/R94W (Fc fusion) VIHVTKEVKEVATLSCGHNVSVEELAQTRIYWQKDKKMVLTMMSGDINIWPEYKNRTIFDITNNLSIVILALRPSDAGTYECVVQKYEKDAFKWEHLAEVTLSVKAD , thanks.
Output: 272

Input: Now the same for variant CD80 IgV-Fc H18Y/E35D/M47L (Fc fusion) VIHVTKEVKEVATLSCGYNVSVEELAQTRIYWQKDKKMVLTMMSGDLNIWPEYKNRTIFDITNNLSIVILALRPSDEGTYECVVLKYEKDAFKREHLAEVTLSVKAD
Output: 5070

Input: Next binder up: variant CD80 IgV-Fc Q33L/E35D/M47L/A71G/F92S (Fc fusion) VIHVTKEVKEVATLSCGHNVSVEELAQTRIYWLKDKKMVLTMMSGDLNIWPEYKNRTIFDITNNLSIVILGLRPSDEGTYECVVLKYEKDASKREHLAEVTLSVKAD
Output: 366
